test system: Staphylococcus aureus; assay: Antibacterial activity against Staphylococcus aureus assessed as bacterial growth inhibtion incubated for 18 hrs by resazurin dye based microdilution assay; assay type: functional
Reported values of MIC for individual entries

Which MIC value belongs to CC(C)C[C@@H](c1c(O)c(C=O)c(O)c(C=O)c1O)[C@@]1(C)CC[C@@H]2[C@@H]1[C@H]1[C@@H](CC[C@@]2(C)O)C1(C)C ?
3.3 µM

Further cases:
Which MIC value belongs to CC(=O)CC[C@@H]1[C@H]([C@@H]2C[C@@](C)(C(CC(C)C)c3c(O)c(C=O)c(O)c(C=O)c3O)CC2=O)C1(C)C (stereo partly specified) ?
16.5 µM

Which MIC value belongs to CC(C)CC(=O)c1c(O)c(C=O)c(O)c(C[C@@]2(C)CC[C@@H]3[C@@H]2[C@H]2[C@@H](CC[C@@]3(C)O)C2(C)C)c1O ?
7.4 µM

----------
tested on: Staphylococcus aureus; test: Antibacterial activity against Staphylococcus aureus assessed as bacterial growth inhibtion incubated for 18 hrs by resazurin dye based microdilution assay; assay type: functional
Readout name: MIC

Which MIC value belongs to CC(C)CC(c1c(O)c(C=O)c(O)c(C=O)c1O)C1(C)/C=C2/CCC2C(C(C)(C)O)CCC1C (centres undefined) ?
1.7 µM

Which MIC value belongs to CC(C)C[C@@H](c1c(O)c(C=O)c(O)c(C=O)c1O)C1CC[C@@](C)(O)[C@@H]2C[C@H](C(C)(C)O)CC[C@@]12C (some centres undefined) ?
16.8 µM

Which MIC value belongs to C=C(C)[C@@H]1CC[C@@]2(C)[C@H](Cc3c(O)c(C=O)c(O)c(C(=O)CC(C)C)c3O)CC[C@@](C)(O)[C@@H]2C1 ?
19.9 µM

Which MIC value belongs to CC(C)CC(c1c(O)c(C=O)c(O)c(C=O)c1O)C1(C)CCC2C1=CC(C(C)(C)O)CCC2C (centres undefined) ?
3.3 µM

Which MIC value belongs to CC(C)CC(c1c(O)c(C=O)c(O)c(C=O)c1O)C1(C)C=C2CCC1C(C(C)(C)O)CCC2C (centres undefined) ?
3.4 µM

Further cases:
Which MIC value belongs to C=C1CCC2C(C3C1CCC3(C)C(CC(C)C)c1c(O)c(C=O)c(O)c(C=O)c1O)C2(C)C (centres undefined) ?
6.9 µM

Which MIC value belongs to C=C(C)[C@@H]1C=C2[C@@H](C)CC[C@@H](Cc3c(O)c(C=O)c(O)c(C(=O)CCC)c3O)[C@]2(C)CC1 ?
3.5 µM

Which MIC value belongs to CC(C)CC(=O)c1c(O)c(C=O)c(O)c(C[C@H]2CC(C(C)C)=C[C@H]3Oc4c(C=O)c(O)c(C(=O)CC(C)C)c(O)c4C[C@@]23C)c1O ?
6.3 µM

Which MIC value belongs to C=C(C)[C@@H]1C=C2[C@@H](C)CC[C@@H](Cc3c(O)c(C=O)c(O)c(C(=O)CC(C)C)c3O)[C@]2(C)CC1 ?
4.7 µM

----------
Reported values of MIC for individual entries
tested on: Staphylococcus aureus; assay: Antibacterial activity against Staphylococcus aureus assessed as bacterial growth inhibtion incubated for 18 hrs by resazurin dye based microdilution assay; format: functional

Observe how each entry below is paired with its result.
Which MIC value belongs to CC(C)CC(=O)c1c(O)c(C=O)c(O)c(C[C@H]2CC(C(C)C)=C[C@H]3Oc4c(c(O)c(C=O)c(O)c4C(=O)CC(C)C)C[C@@]23C)c1O ?
12.6 µM

Which MIC value belongs to CC(C)CC(c1c(O)c(C=O)c(O)c(C=O)c1O)C1(C)CCC2C1C1C(CCC2(C)O)C1(C)C (stereo not drawn) ?
3.3 µM

Further cases:
Which MIC value belongs to C=C1CC[C@@H]2[C@H]([C@H]3[C@H]1CC[C@]3(C)Cc1c(O)c(C=O)c(O)c(C(=O)CCC)c1O)C2(C)C ?
7.1 µM
